- Study system: SET7/9 (Homo sapiens)
- Construct: purchased Cayman 10320
- Assay summary: Sinefungin Probe 1B displacement FP assay with SET7/9 (Epigenetics Screening Library profiling)
- Format: binding
- Run parameters: SET7/9, FIG. 11B
Assay readout: Ki (nM)
Provide the reading as a plain figure in nM.

query: Observed Ki on SET7/9 (Homo sapiens) for Nc1ncnc2c1ncn2[C@@H]1O[C@H](C[C@@H](N)CC[C@H](N)C(=O)O)[C@@H](O)[C@H]1O , please.
result: 120

* * *

- Study system: SET7/9 (Homo sapiens, UniProt Q8WTS6)
- Construct: purchased Cayman 10320
- Sequence (Q8WTS6 whole entry): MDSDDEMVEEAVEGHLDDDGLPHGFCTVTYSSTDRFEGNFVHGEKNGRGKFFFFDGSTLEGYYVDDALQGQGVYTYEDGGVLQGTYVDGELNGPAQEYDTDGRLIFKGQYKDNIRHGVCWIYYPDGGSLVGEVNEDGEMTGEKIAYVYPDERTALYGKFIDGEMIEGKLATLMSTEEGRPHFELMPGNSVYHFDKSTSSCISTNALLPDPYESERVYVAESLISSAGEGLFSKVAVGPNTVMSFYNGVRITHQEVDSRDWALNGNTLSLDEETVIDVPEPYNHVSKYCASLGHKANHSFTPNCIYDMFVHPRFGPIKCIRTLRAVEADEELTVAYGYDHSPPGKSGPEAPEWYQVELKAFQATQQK
- Assay summary: Sinefungin Probe 1A competition FP assay with SET7/9
- Assay type: binding
- Run parameters: SET7/9; read-out: Ki for displacement of Sinefungin Probe 1A
Assay readout: pKi
Formally, pKi is defined as -log10 of the concentration c, with c in mol/L.

query: Find the measured pKi: item Nc1ncnc2c1ncn2[C@@H]1O[C@H](C[C@@H](N)CC[C@H](N)C(=O)O)[C@@H](O)[C@H]1O , target or system SET7/9 (Homo sapiens, UniProt Q8WTS6).
result: 6.77
